target_or_system: Sorcin (Homo sapiens)
Construct: gene SRI; full-length wild type; immobilized by amine coupling for SPR; homodimer
Sequence (P30626 1-198): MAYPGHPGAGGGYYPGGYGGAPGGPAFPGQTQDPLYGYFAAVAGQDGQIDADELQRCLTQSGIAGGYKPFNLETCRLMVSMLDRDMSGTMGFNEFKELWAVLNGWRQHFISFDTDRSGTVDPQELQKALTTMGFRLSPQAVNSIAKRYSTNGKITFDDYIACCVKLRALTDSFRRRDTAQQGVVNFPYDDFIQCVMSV
measurement_protocol: SPR, immobilized Sorcin, one-site fit
Type: binding
measured_attribute: pKd
Keep it numeric: pKd is minus log10 of the concentration in mol/L.

What value of pKd has been recorded for this entry: [NH2][Pt]([NH2])([Cl])[Cl] [cisplatin] 5.77
